Where do the numbers come from? From PubChem BioAssay (NCI).

# Test system: NCI-H226 lung
# test-method-notes: NCI tumour cell line growth inhibition, 48 h; in the data active = GI50 below about 0.43 µM; inactive = the rest
Field 'call' accepts active, inactive

Q) Dear all, I need the recorded test outcome for OCCN(CCO)c1ncnc2c1ncn2Cc1ccc(CCl)cc1 , thank you.
A) inactive

Q) Dear all, I need the recorded test outcome for CCC(=O)[C@H](C)[C@@H](OC(=O)[C@H](C)CC)[C@H](C)[C@H]1OC(CC)=C(C)C(=O)[C@@H]1C , thank you.
A) inactive

Q) Dear all, I need the recorded test outcome for O=C(Nc1ccc(-n2ccc3c(NC(=O)c4ccccc4)nccc32)cc1)c1ccc(Cl)c(C(F)(F)F)c1 , thank you.
A) inactive

Q) Dear all, I need the recorded test outcome for O=C(NC(=O)c1ccccc1[N+](=O)[O-])Nc1ccc(Oc2ncc(Br)cn2)c(Cl)c1 , thank you.
A) active

Q) Dear all, I need the recorded test outcome for Nc1ccccc1C#C/C=C\C#Cc1ccccc1OC(F)(F)F , thank you.
A) inactive

Q) Dear all, I need the recorded test outcome for COc1cnc2c(c1)C(=O)c1c-2n(CCCN2CCOCC2)c(=O)c2cc(F)ccc12 , thank you.
A) active

Q) Dear all, I need the recorded test outcome for Cn1cc(C2=C(c3c4n(c5ccccc35)CCCCC4)C(=O)NC2=O)c2ccccc21 , thank you.
A) inactive
